- TARGET UNDER TEST: NOP (Homo sapiens, UniProt P41146)
- Sequence (P41146 whole entry): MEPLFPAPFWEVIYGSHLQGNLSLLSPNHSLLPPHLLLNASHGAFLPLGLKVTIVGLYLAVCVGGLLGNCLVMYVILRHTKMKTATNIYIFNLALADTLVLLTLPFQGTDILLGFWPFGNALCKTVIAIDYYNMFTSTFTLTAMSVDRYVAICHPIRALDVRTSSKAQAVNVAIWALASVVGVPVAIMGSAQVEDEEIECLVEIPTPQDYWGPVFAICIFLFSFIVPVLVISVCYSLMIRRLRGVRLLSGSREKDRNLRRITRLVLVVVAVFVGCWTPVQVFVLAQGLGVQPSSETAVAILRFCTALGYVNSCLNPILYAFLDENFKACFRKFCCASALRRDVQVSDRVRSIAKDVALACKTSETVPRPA
OBSERVED PROPERTY: Ki (nM)
Express the result in nM but write the number alone.

COc1ccccc1CCC(=O)O[C@@]12CCC(=O)[C@@H]3Oc4c(O)ccc5c4[C@@]31CCN(CC1CC1)C2C5	120
Cc1ccccc1CC(=O)O[C@@]12CCC(=O)[C@@H]3Oc4c(O)ccc5c4[C@@]31CCN(CC1CC1)C2C5	44.1
Cc1ccc(CCC(=O)O[C@@]23CCC(=O)[C@@H]4Oc5c(O)ccc6c5[C@@]42CCN(CC2CC2)C3C6)cc1	35.8
Cc1ccccc1CCC(=O)O[C@@]12CCC(=O)[C@@H]3Oc4c(O)ccc5c4[C@@]31CCN(CC1CC1)C2C5	12.1
COc1cccc(CCC(=O)O[C@@]23CCC(=O)[C@@H]4Oc5c(O)ccc6c5[C@@]42CCN(CC2CC2)C3C6)c1	154
O=C(Cc1ccc2c(c1)OCO2)O[C@@]12CCC(=O)[C@@H]3Oc4c(O)ccc5c4[C@@]31CCN(CC1CC1)C2C5	94.3

# context switch: different molecule, same Ki
Looking for the measured Ki of COc1ccccc1CC(=O)O[C@@]12CCC(=O)[C@@H]3Oc4c(O)ccc5c4[C@@]31CCN(CC1CC1)C2C5 , can you help?
62.3

###

Emax reference
- TARGET UNDER TEST: NOP (Homo sapiens, UniProt P41146)
- Construct: expressed in transfected cells; host or cells: CHO cells (membranes)
- RUN DESCRIPTION: [35S]GTPγS binding, NOP
- Assay type: biochemical
- CONDITION DESCRIPTION: 1 h; read-out: % stim NOP
Write it as a number; the unit % goes unstated.

Consider the worked cases shown below.
Cc1ccc(CC(=O)O[C@@]23CCC(=O)[C@@H]4Oc5c(O)ccc6c5[C@@]42CCN(CC2CC2)C3C6)cc1	22
COc1ccccc1CCC(=O)O[C@@]12CCC(=O)[C@@H]3Oc4c(O)ccc5c4[C@@]31CCN(CC1CC1)C2C5	56
O=C(Cc1ccccc1F)O[C@@]12CCC(=O)[C@@H]3Oc4c(O)ccc5c4[C@@]31CCN(CC1CC1)C2C5	15

In the following, a different molecule is considered.
# input molecule: O=C(Cc1ccccc1Cl)O[C@@]12CCC(=O)[C@@H]3Oc4c(O)ccc5c4[C@@]31CCN(CC1CC1)C2C5 ; wanted: its Emax
50

###

- TARGET UNDER TEST: KOP (Homo sapiens)
- Construct: expressed in transfected cells; host or cells: CHO cells (membranes)
- Sequence (P41145 whole entry): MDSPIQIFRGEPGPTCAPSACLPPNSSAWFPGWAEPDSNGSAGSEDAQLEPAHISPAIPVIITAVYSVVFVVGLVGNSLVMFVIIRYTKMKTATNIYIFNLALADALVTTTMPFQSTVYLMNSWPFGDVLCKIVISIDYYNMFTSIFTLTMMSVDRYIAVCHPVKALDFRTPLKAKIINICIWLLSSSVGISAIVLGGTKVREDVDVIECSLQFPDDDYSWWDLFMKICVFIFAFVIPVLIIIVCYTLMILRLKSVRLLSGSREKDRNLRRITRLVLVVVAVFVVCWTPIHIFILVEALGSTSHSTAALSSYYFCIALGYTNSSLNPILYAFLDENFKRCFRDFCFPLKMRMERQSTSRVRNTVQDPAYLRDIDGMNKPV
- RUN DESCRIPTION: biochemical
- Assay type: binding
- CONDITION DESCRIPTION: [3H]U69593, membranes of CHO cells with human receptor
hey, just use MET if measured Ki is less than 2 nM, otherwise NOT MET

Cc1ccc(CC(=O)O[C@@]23CCC(=O)[C@@H]4Oc5c(O)ccc6c5[C@@]42CCN(CC2CC2)C3C6)cc1	MET

A record lists Cc1cccc(CC(=O)O[C@@]23CCC(=O)[C@@H]4Oc5c(O)ccc6c5[C@@]42CCN(CC2CC2)C3C6)c1 . Is its Ki below 2 nM?
NOT MET

Criterion: Ki strictly below 2 nM. Is it met by O=C(Cc1ccccc1Cl)O[C@@]12CCC(=O)[C@@H]3Oc4c(O)ccc5c4[C@@]31CCN(CC1CC1)C2C5 ?
MET
